IC50 overview
- assay.system: α4β1 Integrin (Homo sapiens, UniProt P05556+P13612)
- Construct: endogenous in cells; host or cells: Jurkat cells
- Sequence (P13612 34-1032): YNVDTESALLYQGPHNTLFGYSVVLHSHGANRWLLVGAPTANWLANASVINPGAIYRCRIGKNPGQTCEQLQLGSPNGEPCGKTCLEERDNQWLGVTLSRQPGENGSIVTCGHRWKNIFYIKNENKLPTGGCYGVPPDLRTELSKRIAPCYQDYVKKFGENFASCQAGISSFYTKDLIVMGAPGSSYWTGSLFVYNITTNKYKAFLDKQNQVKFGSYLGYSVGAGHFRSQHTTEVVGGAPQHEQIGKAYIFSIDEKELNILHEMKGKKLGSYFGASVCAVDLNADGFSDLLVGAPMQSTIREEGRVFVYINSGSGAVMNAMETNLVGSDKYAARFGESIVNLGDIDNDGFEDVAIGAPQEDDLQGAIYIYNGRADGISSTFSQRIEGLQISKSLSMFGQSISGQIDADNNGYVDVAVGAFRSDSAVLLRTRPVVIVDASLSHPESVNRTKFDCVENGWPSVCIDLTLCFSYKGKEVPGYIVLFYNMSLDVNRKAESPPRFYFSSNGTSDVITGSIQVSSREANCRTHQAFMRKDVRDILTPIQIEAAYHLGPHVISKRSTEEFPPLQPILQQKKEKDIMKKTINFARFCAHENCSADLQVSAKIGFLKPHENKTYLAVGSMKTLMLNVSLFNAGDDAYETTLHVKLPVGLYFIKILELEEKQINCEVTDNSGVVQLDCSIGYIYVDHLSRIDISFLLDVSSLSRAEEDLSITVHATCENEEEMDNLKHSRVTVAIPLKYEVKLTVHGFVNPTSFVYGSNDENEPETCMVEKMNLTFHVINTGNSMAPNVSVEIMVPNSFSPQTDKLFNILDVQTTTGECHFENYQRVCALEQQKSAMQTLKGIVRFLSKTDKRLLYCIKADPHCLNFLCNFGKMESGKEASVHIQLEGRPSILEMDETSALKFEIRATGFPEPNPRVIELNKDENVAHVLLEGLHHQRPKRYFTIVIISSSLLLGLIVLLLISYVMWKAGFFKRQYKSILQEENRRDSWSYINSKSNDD
- Sequence (P05556 21-798): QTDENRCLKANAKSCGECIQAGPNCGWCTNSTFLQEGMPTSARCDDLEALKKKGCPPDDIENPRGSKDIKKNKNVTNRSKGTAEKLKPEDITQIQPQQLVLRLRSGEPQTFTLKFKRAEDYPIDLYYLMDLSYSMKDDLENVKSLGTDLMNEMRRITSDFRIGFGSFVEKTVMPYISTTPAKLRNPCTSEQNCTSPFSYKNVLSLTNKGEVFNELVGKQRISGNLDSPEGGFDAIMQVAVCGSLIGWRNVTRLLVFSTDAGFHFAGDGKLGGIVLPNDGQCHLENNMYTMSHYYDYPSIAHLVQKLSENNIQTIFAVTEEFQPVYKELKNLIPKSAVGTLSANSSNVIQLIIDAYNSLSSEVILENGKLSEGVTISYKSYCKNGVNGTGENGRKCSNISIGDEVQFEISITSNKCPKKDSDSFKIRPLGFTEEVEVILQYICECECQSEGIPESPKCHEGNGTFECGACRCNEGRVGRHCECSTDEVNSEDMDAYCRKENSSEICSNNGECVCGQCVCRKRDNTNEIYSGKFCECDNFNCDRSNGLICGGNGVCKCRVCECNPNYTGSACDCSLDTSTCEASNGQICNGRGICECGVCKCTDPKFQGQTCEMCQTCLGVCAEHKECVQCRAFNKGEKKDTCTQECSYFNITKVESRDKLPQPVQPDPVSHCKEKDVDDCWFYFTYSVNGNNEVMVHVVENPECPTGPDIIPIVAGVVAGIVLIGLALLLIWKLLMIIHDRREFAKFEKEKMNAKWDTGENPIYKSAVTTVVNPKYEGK
- assay.notes: α4β1 Integrin Adhesion Assay: Jurkat cell adhesion to human plasma fibronectin
- Type: cell-based
- test.settings: IC50, Cell Adhesion to Human Plasma Fibronectin (Without the Human Serum), Jurkat cells, without human serum
Supply the numeric figure in nM, leaving out any unit text.

compound	unit.text	IC50
CCN(CC)c1ncc(N(CC2CC2)S(=O)(=O)c2ccc(F)cc2)c(N[C@@H](Cc2ccc(OC(=O)N(C)C)cc2)C(=O)O)n1	nM	1.59
CCN(CC)c1ncc(N(CC)S(=O)(=O)c2ccc(F)cc2F)c(N[C@@H](Cc2ccc(OC(=O)N(C)C)cc2)C(=O)O)n1	nM	3.22
C#CCN(c1cnc(N(CC)CC)nc1N[C@@H](Cc1ccc(OC(=O)N(C)C)cc1)C(=O)O)S(=O)(=O)c1ccc(F)cc1	nM	1.63
CCN(CC)c1ncc(N(CC(F)(F)F)S(=O)(=O)c2ccc(F)cc2)c(NC(Cc2ccc(OC(=O)N(C)C)cc2)C(=O)O)n1 (stereo not drawn)	nM	3.35

Ask: Which IC50 is listed for CCN(CC)c1ncc(N(C)S(=O)(=O)c2ccc(Cl)c(Cl)c2)c(N[C@@H](Cc2ccc(OC(=O)N(C)C)cc2)C(=O)O)n1 ?
Result: 6.25

Ask: Which IC50 is listed for CCN(CC)c1ncc(N(C(C)C)S(=O)(=O)c2ccc(Cl)cc2)c(N[C@@H](Cc2ccc(OC(=O)N(C)C)cc2)C(=O)O)n1 ?
Result: 3.85
